Where these numbers come from: the Immune Epitope Database (IEDB)

For each entry below, report its pKd value.
# TGT: HLA-A*03:01
# ASSAY INFO: IEDB peptide-MHC binding, purified MHC/competitive/radioactivity; filed as Kd, often an IC50 or EC50 that approximates it; bounds were set here for any values at or beyond the usual limits of such assays
# MEASUREMENT PARAMETERS: source organism: Plasmodium falciparum 3D7
One number for each entry, as −log10 of the molar value.

{"MACROMOLECULE SEQUENCE": "ALKISQLQK", "QUANTITATIVE RESULT": 7.82}

Each of the following entries comes with a recorded value; kindly state pKd for each.
1. HLNIPIGFK
2. PVLTSLFNK
3. ELFDKDTFFK
4. ALERLLSLK
5. LTNHLINTPK

Response:
1. 8.64
2. 5.71
3. 6.84
4. 6.63
5. 7.96

Each of the following entries comes with a recorded value; kindly state pKd for each.
1. TTRYKYLNK
2. FISFYLINK
3. ILCIEGEQK
4. QQNQESKIMK
5. RLPLLPKTWK
6. KINSNFLLK

Response:
1. 6.93
2. 7.72
3. 5.85
4. 5.46
5. 7.96
6. 7.77

Each of the following entries comes with a recorded value; kindly state pKd for each.
1. IFISFYLINK
2. FSYDLRLNK
3. SSPLFNNFYK
4. VVCSMEYKK
5. GTMYILLKK
6. SQVSNSDSYK
7. YQNFQNADK

Response:
1. 5.70
2. 7.54
3. 7.00
4. 6.35
5. 8.66
6. 5.78
7. 5.57

###

# TGT: HLA-A*03:01
# ASSAY INFO: IEDB peptide-MHC binding, purified MHC/competitive/radioactivity; filed as Kd, often an IC50 or EC50 that approximates it; bounds were set here for any values at or beyond the usual limits of such assays
# MEASUREMENT PARAMETERS: source organism: Plasmodium falciparum 3D7
READOUT NAME: Kd
# output: numeric value plus its unit

Observe how each entry below is paired with its result.
{"MACROMOLECULE SEQUENCE": "IALLIIPPK", "Kd": "1240 nM"}
{"MACROMOLECULE SEQUENCE": "AVSEIQNNK", "Kd": "25 nM"}
{"MACROMOLECULE SEQUENCE": "PVVCSMEYK", "Kd": "1940 nM"}

Each of the following entries comes with a recorded value; kindly state Kd for each.
1. ALERLLSLKK
2. YLFNQHIKK

Response:
147 nM
14 nM

###

# TGT: HLA-A*01:01
# ASSAY INFO: IEDB peptide-MHC binding, purified MHC/competitive/radioactivity; filed as Kd, often an IC50 or EC50 that approximates it; bounds were set here for any values at or beyond the usual limits of such assays
# MEASUREMENT PARAMETERS: source organism: Plasmodium falciparum 3D7
For each entry below, report its pKd value.
One number for each entry, as −log10 of the molar value.

Each of the following entries comes with a recorded value; kindly state pKd for each.
1. LIENELMNY
2. ELEASISGKY
3. FQAAESNERY
4. NVDQQNDMY
5. FVSSIFISFY
6. QNADKNFLY
7. VSSIFISFY

Response:
[6.39, 6.85, 5.05, 7.33, 6.93, 5.42, 6.84]
